# protocol-text: Clinical PK interaction, PART 2: zastaprazan and meloxicam in healthy subjects
# Type: in vivo, human (healthy subjects)
# condition-set: human, in vivo, oral; M (meloxicam 15 mg alone), n = 22, mean ± SD; read-out: meloxicam AUCT, SS
reported-property: AUC(0-t) (ng·h/mL)
Quick note: give the figure in ng·h/mL, leave out the unit.

[Q] Please report the recorded AUC(0-t) for Cc1cnc(NC(=O)C2=C(O)c3ccccc3S(=O)(=O)N2C)s1 [Meloxicam, meloxicam, reference compound] .
[A] 41800

###

# protocol-text: Clinical PK interaction, PART 2: zastaprazan and meloxicam in healthy subjects
# Type: in vivo, human (healthy subjects)
# condition-set: human, oral; M (meloxicam 15 mg alone), n = 22, plasma, mean ± SD; read-out: meloxicam Cmax, SS
reported-property: Cmax (ng/mL)
Quick note: give the figure in ng/mL, leave out the unit.

[Q] Please report the recorded Cmax for Cc1cnc(NC(=O)C2=C(O)c3ccccc3S(=O)(=O)N2C)s1 [Meloxicam, meloxicam, reference compound] .
[A] 2480

The reported numbers originate from patent US20260183269A1.
